System: Plasmodium Falciparum W2 Strain (Chloroquine resistant)
Test: In vitro screening against Plasmodium falciparum, radiolabelled hypoxanthine incorporation, W2 strain
Format: cell-based
Settings: W2, 66 h
From the text: Two parasite strains - W2 resistant to chloroquine, and D6 sensitive to chloroquine but resistant to mefloquine were used. The assay relies on incorporation of radiolabelled hypoxanthine by the parasite and inhibition of incorporation is attributed to activity of known or candidate antimalarial drugs. For each assay, proven antimalarials such as chloroquine, mefloquine, quinine, artemisinin and pyrimethamine were used as controls. […] The filter mats were then counted in a scintillation counter. […]
Decide using In vitro activity: (IC10) alone. Strictly below 0.6 ng/mL: Fulfilled. Equal to or above 0.6 ng/mL: Not fulfilled.

Consider the following illustrative entries.
molecule="C[C@H]1[C@@H](OCc2cccc(F)c2)O[C@@H]2O[C@@]3(C)CC[C@H]4[C@H](C)CC[C@@H]1[C@@]24OO3 [Example 9]" target_under_test="Plasmodium Falciparum W2 Strain (Chloroquine resistant)" group_label=Fulfilled
molecule="C[C@H]1[C@@H](OCc2cccc3c2ccc2ccccc23)O[C@@H]2O[C@@]3(C)CC[C@H]4[C@H](C)CC[C@@H]1[C@@]24OO3 [Example 13]" target_under_test="Plasmodium Falciparum W2 Strain (Chloroquine resistant)" group_label=Fulfilled

**Query** For C[C@H]1[C@@H](OCc2ccc3ccc4cccc5ccc2c3c45)O[C@@H]2O[C@@]3(C)CC[C@H]4[C@H](C)CC[C@@H]1[C@@]24OO3 [Example 14] , is the recorded In vitro activity: (IC10) below the cut-off of 0.6 ng/mL?
**Result** Not fulfilled

**Query** For C[C@H]1[C@@H](OCc2ccccc2F)O[C@@H]2O[C@@]3(C)CC[C@H]4[C@H](C)CC[C@@H]1[C@@]24OO3 [Example 8] , is the recorded In vitro activity: (IC10) below the cut-off of 0.6 ng/mL?
**Result** Not fulfilled

**Query** For C[C@H]1[C@@H](OCc2ccc(F)cc2)O[C@@H]2O[C@@]3(C)CC[C@H]4[C@H](C)CC[C@@H]1[C@@]24OO3 [Example 10] , is the recorded In vitro activity: (IC10) below the cut-off of 0.6 ng/mL?
**Result** Fulfilled

**Query** For C[C@H]1[C@@H](Oc2ccnc3cc(C(F)(F)F)ccc23)O[C@@H]2O[C@@]3(C)CC[C@H]4[C@H](C)CC[C@@H]1[C@@]24OO3 [Example 2] , is the recorded In vitro activity: (IC10) below the cut-off of 0.6 ng/mL?
**Result** Fulfilled
